Could you please report measured self-cleavage for the items listed next?
B1: HDV Ribozyme (parent)
chain: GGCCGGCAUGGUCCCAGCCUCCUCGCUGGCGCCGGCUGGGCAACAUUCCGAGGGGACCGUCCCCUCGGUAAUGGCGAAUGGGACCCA

- Variants of: B1
- assay_name: self-cleavage, relative activity (ratio to wild type); higher = more cleavage; co-transcriptional

For orientation, consider the following solved cases.
G5C G29U    0
G6C U9A    0.256
C24G C44G    0.125

Could I get self-cleavage for every one of these entries?
1. G39C C61G
2. C13G C21U
3. G28U G80U
4. C22U A78C

Result ::
0.196
0.141
0.1
0.126

Could I get self-cleavage for every one of these entries?
1. U60A G67C
2. G17A C63G

Result ::
[1.03, 0.633]

Could I get self-cleavage for every one of these entries?
1. C49U G55C
2. C19A G35A

Result ::
1. 0.906
2. 0.111
